The entries below come with measured IRF Lucia reporter activity values attached.
Test system: RAW-Dual
Assay: IRF Lucia reporter activity, fold change vs agonist alone; higher = enhanced IRF activity
Details: library stock concentration (final ~1000-fold dilution): 10 mM; cytotoxicity flag (confluency mask): not cytotoxic; agonist: MPLA (TLR4) […]
Whole data set: some 2,900 compounds, median “IRF Lucia reporter activity, fold change vs agonist alone” near 0.9, cut for the highest 2% near 2.8. This is one part of a sample in which the highest values are shown more often than they occur.

# compound, study.system, IRF Lucia reporter activity
measured = [
    ("CCc1c2c(nc3ccc(O)cc13)-c1cc3c(c(=O)n1C2)COC(=O)C3(O)CC (stereo not given)", "RAW-Dual", 1.65),
    ("CC(c1ncncc1F)C(O)(Cn1cncn1)c1ccc(F)cc1F (stereo not given)", "RAW-Dual", 0.639),
    ("Oc1cccc(-c2nc(N3CCOCC3)c3oc4ncccc4c3n2)c1", "RAW-Dual", 1.42),
    ("NC1CCCN(c2c(/C=C3\\SC(=O)NC3=O)cccc2-c2ccccc2)C1 (stereo not given)", "RAW-Dual", 1.1),
    ("CC(C)(C)C(=O)OCOP(=O)(COCCn1cnc2c(N)ncnc21)OCOC(=O)C(C)(C)C", "RAW-Dual", 2.95),
    ("COc1cc(O)c(C(=O)Nc2nc(C(=O)NCCN(C(C)C)C(C)C)cs2)cc1OC.Cl.O.O.O", "RAW-Dual", 1.03),
    ("COC(=O)C(CC(C)C)NC(=O)c1ccc(NCC(N)CS)cc1-c1cccc2ccccc12.O=C(O)C(F)(F)F (stereo not given)", "RAW-Dual", 0.882),
    ("Nc1ccc(C(=O)Nc2cccc(-c3nc(N4CCOCC4)c4oc5ncccc5c4n3)c2)cn1", "RAW-Dual", 3.52),
    ("CCC1(O)C(=O)OCc2c1cc1n(c2=O)Cc2cc3cc(O)ccc3nc2-1 (stereo not given)", "RAW-Dual", 1.03),
    ("O=C(O)C1OC(Oc2cc3oc(-c4ccccc4)cc(=O)c3c(O)c2O)C(O)C(O)C1O (stereo not given)", "RAW-Dual", 1.03),
]
